B1: SAM and SH3 domain-containing protein 1, residues 630 to 700; numbered along this chain, O94885 (parent)
chain: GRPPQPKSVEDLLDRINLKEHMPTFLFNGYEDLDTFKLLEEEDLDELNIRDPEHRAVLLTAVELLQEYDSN

Variants of: B1
Assay: abundance fitness (aPCA) (normalised: wild type 0, dead -1); higher = more abundant; growth selection in yeast, the domain comes from the species named
Details: Homo sapiens
Classification by abundance fitness | ranges: low = under -0.7, mid = from -0.7 up to -0.4, high = -0.4 and over

{"VARIANT DESCRIPTOR": "L58V", "ASSIGNED CATEGORY": "mid"}
{"VARIANT DESCRIPTOR": "L44R", "ASSIGNED CATEGORY": "low"}
{"VARIANT DESCRIPTOR": "A56P", "ASSIGNED CATEGORY": "low"}
{"VARIANT DESCRIPTOR": "M22S", "ASSIGNED CATEGORY": "high"}
{"VARIANT DESCRIPTOR": "V57A", "ASSIGNED CATEGORY": "high"}
{"VARIANT DESCRIPTOR": "E31N", "ASSIGNED CATEGORY": "high"}
{"VARIANT DESCRIPTOR": "D69P", "ASSIGNED CATEGORY": "high"}
{"VARIANT DESCRIPTOR": "V62K", "ASSIGNED CATEGORY": "high"}
{"VARIANT DESCRIPTOR": "T60C", "ASSIGNED CATEGORY": "high"}
{"VARIANT DESCRIPTOR": "H21A", "ASSIGNED CATEGORY": "low"}
{"VARIANT DESCRIPTOR": "Q66M", "ASSIGNED CATEGORY": "mid"}
{"VARIANT DESCRIPTOR": "Y68Q", "ASSIGNED CATEGORY": "high"}
{"VARIANT DESCRIPTOR": "P52F", "ASSIGNED CATEGORY": "low"}
{"VARIANT DESCRIPTOR": "L26W", "ASSIGNED CATEGORY": "mid"}
{"VARIANT DESCRIPTOR": "F27D", "ASSIGNED CATEGORY": "high"}
{"VARIANT DESCRIPTOR": "E20K", "ASSIGNED CATEGORY": "low"}
{"VARIANT DESCRIPTOR": "L38T", "ASSIGNED CATEGORY": "high"}
{"VARIANT DESCRIPTOR": "L38G", "ASSIGNED CATEGORY": "high"}
{"VARIANT DESCRIPTOR": "P6G", "ASSIGNED CATEGORY": "mid"}
{"VARIANT DESCRIPTOR": "P52L", "ASSIGNED CATEGORY": "mid"}
{"VARIANT DESCRIPTOR": "L58S", "ASSIGNED CATEGORY": "mid"}
{"VARIANT DESCRIPTOR": "L44C", "ASSIGNED CATEGORY": "mid"}
{"VARIANT DESCRIPTOR": "G1H", "ASSIGNED CATEGORY": "high"}
{"VARIANT DESCRIPTOR": "L39N", "ASSIGNED CATEGORY": "low"}
{"VARIANT DESCRIPTOR": "L65C", "ASSIGNED CATEGORY": "mid"}
{"VARIANT DESCRIPTOR": "R55N", "ASSIGNED CATEGORY": "low"}
{"VARIANT DESCRIPTOR": "D69W", "ASSIGNED CATEGORY": "low"}
{"VARIANT DESCRIPTOR": "D11L", "ASSIGNED CATEGORY": "low"}
{"VARIANT DESCRIPTOR": "D43N", "ASSIGNED CATEGORY": "high"}
{"VARIANT DESCRIPTOR": "K19M", "ASSIGNED CATEGORY": "high"}
{"VARIANT DESCRIPTOR": "R2S", "ASSIGNED CATEGORY": "mid"}
{"VARIANT DESCRIPTOR": "F25P", "ASSIGNED CATEGORY": "low"}
{"VARIANT DESCRIPTOR": "R2P", "ASSIGNED CATEGORY": "mid"}
{"VARIANT DESCRIPTOR": "Y30H", "ASSIGNED CATEGORY": "low"}
{"VARIANT DESCRIPTOR": "N28R", "ASSIGNED CATEGORY": "mid"}
{"VARIANT DESCRIPTOR": "L12D", "ASSIGNED CATEGORY": "low"}
{"VARIANT DESCRIPTOR": "Q5D", "ASSIGNED CATEGORY": "low"}
{"VARIANT DESCRIPTOR": "P3E", "ASSIGNED CATEGORY": "high"}
{"VARIANT DESCRIPTOR": "A61L", "ASSIGNED CATEGORY": "low"}
{"VARIANT DESCRIPTOR": "E67P", "ASSIGNED CATEGORY": "mid"}

Value source: the Human Domainome abundance scans (Beltran et al. 2025)
